measurement.target: HLA-A*02:01 (Homo sapiens, UniProt P04439, D140Y/D185E/D98H/E176V/E277Q/G131W/G231S/I119V/I121R/I166T/I218V/L300P/L318F/N151K/N90K/P208A/P217A/Q86G/Q94H/R138H/R169H/T345S)
test.details: MHC binding assay (UV-ligand exchange, β2m ELISA, peptide exchange yield)
condition.set: MHC class I binding score; binding to HLA-A*02:01 ranged by peptide exchange yield (UV-ligand exchange, β2m ELISA)
measure.name: Peptide exchange

>>> obs_value("17 (GLLPGDRLVSV; listed as Homo sapiens) [compound 17]")
"″+++″ (≧50% = +++)"
>>> obs_value("186 (TLFFQQNAL; listed as Homo sapiens) [compound 186]")
"″++″ (≧20% = ++)"
>>> obs_value("617 (ALMYESEKVGV; listed as Homo sapiens) [compound 617]")
"″+++″ (≧50% = +++)"
>>> obs_value("5 (HLTEVYPEL; listed as Homo sapiens) [compound 5]")
"″+++″ (≧50% = +++)"

Req: For 232 (ALLEAQDVELYL; listed as Homo sapiens) [compound 232] , what is its reported Peptide exchange?
Resp: ″++″ (≧20% = ++)

* * *

measurement.target: HLA-A*02:01 (Homo sapiens, UniProt P04439, D140Y/D185E/D98H/E176V/E277Q/G131W/G231S/I119V/I121R/I166T/I218V/L300P/L318F/N151K/N90K/P208A/P217A/Q86G/Q94H/R138H/R169H/T345S)
test.details: MHC binding assay (UV-ligand exchange, β2m ELISA, peptide exchange yield)
condition.set: MHC class I binding score; binding to HLA-A*02:01 ranged by peptide exchange yield (UV-ligand exchange, β2m ELISA)
measure.name: Peptide exchange

>>> obs_value("120 (ALLGIPLTLV; listed as Homo sapiens) [compound 120]")
"″+++″ (≧50% = +++)"
>>> obs_value("162 (YQQAQVPSV; listed as Homo sapiens) [compound 162]")
"″+++″ (≧50% = +++)"
>>> obs_value("401 (ILLDDTGLAYI; listed as Homo sapiens) [compound 401]")
"″+++″ (≧50% = +++)"
>>> obs_value("227 (ALMNTLLYL; listed as Homo sapiens) [compound 227]")
"″++″ (≧20% = ++)"
>>> obs_value("364 (LLQNEQFEL; listed as Homo sapiens) [compound 364]")
"″+++″ (≧50% = +++)"
>>> obs_value("32 (KLDDLTQDLTV; listed as Homo sapiens) [compound 32]")
"″++″ (≧20% = ++)"
>>> obs_value("109 (IILSILEQA; listed as Homo sapiens) [compound 109]")
"″++++″ (≧75% = ++++)"
>>> obs_value("567 (SLLPLDDIVRV; listed as Homo sapiens) [compound 567]")
"″+++″ (≧50% = +++)"
>>> obs_value("583 (ILANDGVLLAA; listed as Homo sapiens) [compound 583]")
"″+++″ (≧50% = +++)"
>>> obs_value("126 (VLAYFLPEA; listed as Homo sapiens) [compound 126]")
"″++++″ (≧75% = ++++)"

Req: For 231 (FLSPQQPPLLL; listed as Homo sapiens) [compound 231] , what is its reported Peptide exchange?
Resp: ″++″ (≧20% = ++)
